Hey, just so you know, these numbers are from PubChem BioAssay.

Molecular target: Potassium voltage-gated channel subfamily KQT member 2 (Rattus norvegicus) (UniProt O88943)
Sequence (O88943 whole entry, looked up): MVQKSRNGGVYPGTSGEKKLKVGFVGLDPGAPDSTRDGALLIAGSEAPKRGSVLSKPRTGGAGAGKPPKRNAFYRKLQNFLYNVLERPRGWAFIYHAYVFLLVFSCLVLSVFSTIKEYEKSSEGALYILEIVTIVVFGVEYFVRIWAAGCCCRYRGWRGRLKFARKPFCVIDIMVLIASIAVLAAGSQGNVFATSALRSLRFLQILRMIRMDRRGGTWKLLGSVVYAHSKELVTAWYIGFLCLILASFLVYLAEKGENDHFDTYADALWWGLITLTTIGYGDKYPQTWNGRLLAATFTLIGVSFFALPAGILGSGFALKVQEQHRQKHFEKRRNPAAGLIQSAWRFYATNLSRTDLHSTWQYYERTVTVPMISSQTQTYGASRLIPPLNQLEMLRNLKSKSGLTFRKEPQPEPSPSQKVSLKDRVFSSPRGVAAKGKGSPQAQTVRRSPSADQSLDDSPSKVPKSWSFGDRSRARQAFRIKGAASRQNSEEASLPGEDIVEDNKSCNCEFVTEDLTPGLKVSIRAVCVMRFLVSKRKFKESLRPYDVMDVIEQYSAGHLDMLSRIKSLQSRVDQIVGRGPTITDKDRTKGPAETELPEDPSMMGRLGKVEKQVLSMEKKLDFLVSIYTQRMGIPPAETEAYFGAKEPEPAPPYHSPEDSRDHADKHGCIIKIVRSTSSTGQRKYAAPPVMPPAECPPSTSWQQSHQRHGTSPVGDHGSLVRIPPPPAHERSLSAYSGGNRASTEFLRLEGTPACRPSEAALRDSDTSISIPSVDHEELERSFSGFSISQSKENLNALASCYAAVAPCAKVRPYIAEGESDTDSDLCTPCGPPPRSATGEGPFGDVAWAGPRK
Test: rat KCNQ2 channel potentiation, selectivity assay for KCNQ1 potentiator project, KCNQ2-CHO-K1 cells (AID 493009);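 also: assay conditions were tuned for KCNQ1 rather than KCNQ2 modulators; signal is max minus min fluorescence divided by baseline after thallium stimulus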
Conditions: FluxOR thallium flux fluorescence, at 10 µM, scaled: buffer 0, activator control 100
Active and inactive are the calls of the source.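 The calls were made as follows: active = mean duplicate potentiation above the buffer control mean plus 5 SD of buffer wells; inactive = the rest.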
Possible outcomes: active, inactive

- compound: "O=C(Nc1nnc(-c2ccccc2)o1)c1cc(Cl)sc1Cl"
  assignedLabel: "active"
- compound: "Cc1sc(-n2c(C)cc(/C=C3\\SC(=S)NC3=O)c2C)c(C#N)c1C"
  assignedLabel: "inactive"
- compound: "C=CCSc1nc2c(c(=O)[nH]1)C(C(C)C)C(C#N)=C(N)O2 (stereo unspecified)"
  assignedLabel: "inactive"
- compound: "CCOC(=O)c1oc2c(CN3CCCCC3C)c(O)ccc2c(=O)c1-c1ccc(OC)c(OC)c1 (stereo unspecified)"
  assignedLabel: "inactive"
- compound: "C=CCn1c(SCc2ccc(C(=O)O)cc2)nc2sc(C)c(C)c2c1=O"
  assignedLabel: "active"
- compound: "S=C(Nc1ccc(Cl)cc1)c1nc2ccccc2s1"
  assignedLabel: "inactive"
- compound: "Cc1c(CN(C)C)c2c(n1C)C(=O)c1ccc(Br)cc1-2"
  assignedLabel: "active"
- compound: "O=C(NC(=S)Nc1cc(C(F)(F)F)ccc1N1CCOCC1)c1sc2ccccc2c1Cl"
  assignedLabel: "inactive"
- compound: "OC(c1cc(C(F)(F)F)nc2c(Cl)cc(Cl)cc12)C1CCCCN1 (stereo unspecified)"
  assignedLabel: "inactive"
- compound: "CCOC(=O)c1cnn(-c2nc(SC)nc3sc4c(c23)CCCC4)c1N"
  assignedLabel: "active"
- compound: "COC(=O)c1cnn(-c2ccc(Cl)cc2)c1/C=N/NC(N)=S"
  assignedLabel: "inactive"
